- targetSystem: human Sigma-1 receptor (Homo sapiens, UniProt Q99720)
- Construct: expressed in transfected cells
- Sequence (Q99720 whole entry): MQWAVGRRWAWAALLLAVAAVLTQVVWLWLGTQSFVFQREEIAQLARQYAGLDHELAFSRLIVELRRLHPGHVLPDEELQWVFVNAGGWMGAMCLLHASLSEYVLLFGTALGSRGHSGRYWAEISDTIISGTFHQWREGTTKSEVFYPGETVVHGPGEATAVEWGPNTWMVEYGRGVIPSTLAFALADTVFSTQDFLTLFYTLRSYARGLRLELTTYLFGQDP
- testProtocol: [3H]-(+)-pentazocine binding to MCF-7 cells stably expressing the cloned human Sigma-1 receptor
- conditionContext: Table 5, own value; read-out: Affinity for the Sigma-1 receptor (Ki)
quantityName: Ki (nM)
Write down the numeric answer in nM and omit the unit.

Form: compound = CN1CCN(CCc2ccc(Cl)c(Cl)c2)CC1 ; Ki = 3.1

----------
- targetSystem: human Sigma-1 receptor (Homo sapiens, UniProt Q99720)
- Construct: expressed in transfected cells
- testProtocol: [3H]-(+)-pentazocine binding to MCF-7 cells stably expressing the cloned human Sigma-1 receptor
quantityName: pKi
To interpret pKi, take it as minus log10 of a concentration measured in moles per litre.

compoundSmiles: O=C(CCCN1CCC(n2c(=O)[nH]c3ccccc32)CC1)c1ccc(F)cc1
pKi: 6.60

Let's switch to this compound now.
Per the record, O=C(CCCN1CCC(O)(c2ccc(Cl)cc2)CC1)c1ccc(Cl)cc1 has pKi of 8.82

----------
- Tested on: HT-22 cells
- testProtocol: in vitro protection assay, glutamate-induced oxidative stress HT-22 cell model (Calcein AM cell survival)
- conditionContext: read-out: In vitro Protective Potency (EC50 ± SEM)
quantityName: EC50 (nM)
Report as a plain number; the unit nM is understood.

Clc1ccc(N2CCN(Cc3c[nH]c4ncccc34)CC2)cc1 has a reported EC50 of 895
